Molecular target: Oxytocin receptor (Homo sapiens, UniProt P30559)
Sequence (P30559 whole entry): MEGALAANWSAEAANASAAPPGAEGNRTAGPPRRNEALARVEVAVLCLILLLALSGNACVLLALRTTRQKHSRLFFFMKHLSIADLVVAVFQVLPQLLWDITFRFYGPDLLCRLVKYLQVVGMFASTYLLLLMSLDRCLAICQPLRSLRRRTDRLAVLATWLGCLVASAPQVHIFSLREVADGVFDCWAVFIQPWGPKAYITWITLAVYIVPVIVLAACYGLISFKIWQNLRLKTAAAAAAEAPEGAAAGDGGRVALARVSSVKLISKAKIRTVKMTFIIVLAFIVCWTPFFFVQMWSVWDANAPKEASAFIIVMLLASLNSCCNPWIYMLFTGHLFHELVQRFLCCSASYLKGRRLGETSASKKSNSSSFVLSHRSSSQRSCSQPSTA
From various publications: Ki for Oxytocin receptor (Homo sapiens, UniProt P30559).
One number for each entry, in nM.

Here are 5 molecules together with their reported answers.
molecule	assay metric	observed measurement
CC(C)C[C@@H]1C(=O)N[C@H](C2Cc3ccccc3C2)C(=O)N1[C@H](C(=O)NC(C)(C)C)c1ccc(Cl)cc1	Ki	158
COc1ccc(N(CC(=O)Nc2ccc(Cl)cc2C)S(=O)(=O)c2ccccc2)cc1	Ki	800
CC[C@H](C)[C@@H]1NC(=O)[C@H](Cc2ccc(O)cc2)NC(=O)[C@@H](N)CSSC[C@@H](C(=O)N2CCC[C@H]2C(=O)N[C@@H](CC(C)C)C(=O)N(C)CC(N)=O)NC(=O)[C@H](CC(N)=O)NC(=O)[C@H](CCC(N)=O)NC1=O	Ki	1.32
CC[C@H](C)[C@@H]1NC(=O)[C@H](Cc2ccc(O)cc2)NC(=O)[C@@H]2CSSC[C@H](NC(=O)[C@H](CC(N)=O)NC(=O)[C@H](CCC(N)=O)NC1=O)C(=O)N1CCC[C@H]1C(=O)N[C@@H](CC(C)C)C(=O)NCC(=O)N2	Ki	1400
CN(C)CCOc1ccc(S(=O)(=O)N(CC(=O)N/N=C2\C(=O)Nc3ccccc32)c2ccc(Cl)cc2)cc1	Ki	2.1

# return Ki for each item in the list
1. CCOc1ccc(S(=O)(=O)N(CC(=O)N2Cc3ccccc3CC2C(N)=O)c2ccc(OC)cc2)cc1 (stereo not drawn)
2. CC(C)C[C@@H]1C(=O)N[C@H](C2Cc3ccccc3C2)C(=O)N1[C@@H](C(=O)NC(C)C)c1ccc(C(N)=O)cc1

Reply |
1: 320; 2: 31.6

# return Ki for each item in the list
1. CC1(C)[C@@H]2CC[C@@]1(CS(=O)(=O)N1CCC3(CCc4ccccc43)CC1)[C@@H](NC(=O)Cc1c[nH]cn1)C2
2. CC[C@H](C)[C@@H]1NC(=O)[C@H](Cc2ccc(O)cc2)N(C)C(=O)[C@@H](N)CSSC[C@@H](C(=O)N2CCC[C@H]2C(=O)N[C@@H](CC(C)C)C(=O)NCC(N)=O)NC(=O)[C@H](CC(N)=O)NC(=O)[C@H](CCC(N)=O)NC1=O

Reply |
1: 61; 2: 6.76

# return Ki for each item in the list
1. CC(C)C[C@@H]1C(=O)N[C@H](C2Cc3ccccc3C2)C(=O)N1[C@H](C(=O)NC(C)C)c1ccc(C(F)(F)F)cc1
2. COc1ccc(S(=O)(=O)N2C(=O)[C@@](c3ccc(CN4CCN(C)CC4)cc3OC)(N3CCC[C@H]3C(=O)N(C)C)c3cc(Cl)ccc32)cc1

Reply |
1: 79.4; 2: 7
